system: AAVS1; assay: GFP insertion at AAVS1 in T cells with SpyCas9 RNP and gapped AAV templates, flow cytometry (Example 6); type: cell-based, human; conditions: Donor 2; Template A; day 7 post-editing
Strand notation (5' to 3'): a small letter for the sugar, then the base; units joined by * are phosphorothioate-linked, units joined directly phosphodiester-linked; [ ] holds rarer units or linkages, { } end groups; capitals alone tell only the bases. m = 2'-O-methyl; r = 2'-OH (RNA)
PROPERTY: Mean percentage of T cells positive for GFP expression (%)
Reply numerically in %, unit not repeated.

G013584: AAVS1 SpyCas9 guide RNA, guide sequence SEQ ID NO: 264, chr19:55115949-55115969 (nucleic acid) guide: mC*mC*mC*rUrGrGrArArGrArUrGrCrCrArUrGrArCrArGrUrUrUrUrArGrAmGmCmUmAmGmAmAmAmUmAmGmCrArArGrUrUrArArArArUrArArGrGrCrUrArGrUrCrCrGrUrUrArUrCrAmAmCmUmUmGmAmAmAmAmAmGmUmGmGmCmAmCmCmGmAmGmUmCmGmGmUmGmCmU*mU*mU*mU; 62.95

Lookup: Given G013582: AAVS1 SpyCas9 guide RNA, guide sequence SEQ ID NO: 263, chr19:55115951-55115971 (nucleic acid) guide: mC*mC*mU*rGrUrCrArUrGrGrCrArUrCrUrUrCrCrArGrGrUrUrUrUrArGrAmGmCmUmAmGmAmAmAmUmAmGmCrArArGrUrUrArArArArUrArArGrGrCrUrArGrUrCrCrGrUrUrArUrCrAmAmCmUmUmGmAmAmAmAmAmGmUmGmGmCmAmCmCmGmAmGmUmCmGmGmUmGmCmU*mU*mU*mU , respond with its Mean percentage of T cells positive for GFP expression.
Found: 61.00

Lookup: Given G000562: AAVS1 SpyCas9 guide RNA, guide sequence SEQ ID NO: 251, chr19:55115695-55115715 (nucleic acid) guide: mC*mC*mA*rArUrArUrCrArGrGrArGrArCrUrArGrGrArGrUrUrUrUrArGrAmGmCmUmAmGmAmAmAmUmAmGmCrArArGrUrUrArArArArUrArArGrGrCrUrArGrUrCrCrGrUrUrArUrCrAmAmCmUmUmGmAmAmAmAmAmGmUmGmGmCmAmCmCmGmAmGmUmCmGmGmUmGmCmU*mU*mU*mU , respond with its Mean percentage of T cells positive for GFP expression.
Found: 41.20
